# Test system: OVCAR-5 ovarian
# measurement_description: NCI tumour cell line growth inhibition, 48 h
// no (0) strictly below 10 µM in TGI; yes (1) otherwise

molecule: CNC1C(O)CC(OC2C/C=C(\C)C/C(C)=C/C=C/CCC(C)CNC(=O)/C=C/C=C/C2C)OC1C (configuration not stated)
answer_label: no (0)
//
molecule: CCN(CC)CCOc1cc2c(C(=O)OC)c(C)oc2cc1C(C)=O
answer_label: yes (1)
//
molecule: COC(=O)C#Cc1ccc([N+](=O)[O-])cc1
answer_label: no (0)
//
molecule: [N-]=[N+]=CC(=O)OCC(N)C(=O)O (configuration not stated)
answer_label: yes (1)
//
molecule: CC1C(=O)N(C)C2(CO)C(=O)O[C@H](C)C12O (some centres not stated)
answer_label: yes (1)
//
molecule: C=C(Cl)C(Br)(CBr)CCC(Br)C(C)(C)Br (configuration not stated)
answer_label: yes (1)
//
molecule: Nc1nccc(Nc2ccc(S(N)(=O)=O)cc2)n1
answer_label: yes (1)
//
molecule: C=C1CC(COc2ccc3ccc(=O)oc3c2)(c2ccccc2)OC1=O (configuration not stated)
answer_label: yes (1)
//
molecule: COC(=O)C1=CC2OC1(C)C1(CC1)C2=O (configuration not stated)
answer_label: yes (1)
//
molecule: O=C(O)c1cccc(CC(Br)C(=O)O)c1 (configuration not stated)
answer_label: yes (1)
//
molecule: CCOC(=O)/C(=C\NC(C)(C)C)c1nc2ccccc2o1
answer_label: yes (1)
//
molecule: CC(CCC(=O)O)[C@H]1CCC2[C@H]3C(CC(=O)[C@@]21C)[C@@]1(C)CCC(O)C[C@H]1C[C@@H]3O (some centres not stated)
answer_label: yes (1)

###

# System: SN12C renal
# measurement_description: NCI tumour cell line growth inhibition, 48 h
measured_endpoint: GI50

molecule: Cc1cccc(N=C2c3cc([N+](=O)[O-])ccc3-c3c2cc([N+](=O)[O-])cc3[N+](=O)[O-])c1
data_value: 2140 nM
--
molecule: Clc1ccc(CO/N=C(\Cn2ccnc2)c2ccc(Cl)cc2Cl)c(Cl)c1
data_value: 1440 nM
--
molecule: COc1ccc2c(c1)Cc1c-2c(NN)nc2ccccc12
data_value: 40300 nM
--
molecule: CC(=O)OCC1OC(S[As](C)C)C(OC(C)=O)C1OC(C)=O (stereo not given)
data_value: 330 nM
--
molecule: COc1ccc(F)cc1C(=O)c1cnc(NC2CCN(S(C)(=O)=O)CC2)nc1N
data_value: 4920 nM
--
molecule: COc1cccc2c1c1nc3cc(C)c(C)cc3nc1n2CCN(C)C
data_value: 1660 nM
--
molecule: COc1cc(C(=O)n2nc(N3CCN(C)CC3)c3cc(N)ccc32)cc(OC)c1OC
data_value: 4420 nM
--
molecule: Cc1ccc(NC(=O)c2ccnc(N3CCCC3)c2)cc1-c1ccc(C(=O)NCC2CC2)cc1
data_value: > 25000 nM
--
molecule: O=C(Nc1ccc(Br)c(Cl)c1)c1cc(F)ccc1O
data_value: 533 nM
--
molecule: CC1(C)C2CCC13C(=O)C1OC3(C2)C2C(=O)c3c(O)ccc(O)c3C(=O)C12 (stereo not given)
data_value: 16300 nM

###

# Tested on: HCT-116 colon
# measurement_description: NCI tumour cell line growth inhibition, 48 h

compound: CN1CCN(Cc2ccc(NC(=O)c3cncc(C#Cc4c(N)ncc5cc(F)ccc45)c3)cc2C(F)(F)F)CC1
target_desc: HCT-116 colon
TGI: 1.26 µM

compound: COc1ccc(-c2cc(-c3ccco3)c(C#N)c(=S)n2C2OC(CO)C(O)C(O)C2O)cc1 (stereo not given)
target_desc: HCT-116 colon
TGI: > 100 µM

compound: Nc1ccc(C(=O)NN2C(=O)C(Cl)C2c2ccccc2O)cc1 (stereo not given)
target_desc: HCT-116 colon
TGI: > 100 µM

compound: COc1ccc(/C=C/[N+](=O)[O-])cc1
target_desc: HCT-116 colon
TGI: > 100 µM

compound: O=C1CCSc2c(cnc3ccccc23)N1
target_desc: HCT-116 colon
TGI: > 100 µM

compound: CC(C)N1CCCOC(c2ccc([N+](=O)[O-])cc2)O1 (stereo not given)
target_desc: HCT-116 colon
TGI: > 100 µM

compound: CCOC(=O)C1C(c2ccc([N+](=O)[O-])cc2)NC(c2ccc([N+](=O)[O-])cc2)C(C(=O)OC)S1(=O)=O (stereo not given)
target_desc: HCT-116 colon
TGI: > 100 µM

compound: CSc1ccc(-c2cc(-c3nc4ccccc4[nH]3)nc3[nH]c(-c4nc5ccccc5[nH]4)cc(=O)c23)cc1
target_desc: HCT-116 colon
TGI: > 100 µM

compound: Cc1ccc2sc3c(NCCCNCCO)nc4ccccc4c3c(=O)c2c1
target_desc: HCT-116 colon
TGI: 2.73 µM

compound: O=c1[nH]c(=O)n(C2CC(O)C(CO)O2)c2nc3ccc4ccccc4c3nc12 (stereo not given)
target_desc: HCT-116 colon
TGI: > 100 µM

###

Attribute: TGI
# Test system: HT29 colon
# measurement_description: NCI tumour cell line growth inhibition, 48 h

compound: CCN(CC)CCOc1cc2c(C(=O)OC)c(C)oc2cc1C(C)=O
TGI: 94.9 µM

compound: CCOC(=O)C1=C(C)N(NC(=O)c2ccccc2)C2(O)CCCC12C(=O)OCC (stereo unspecified)
TGI: > 100 µM

compound: COc1ccc(-c2cc(-c3ccco3)c(C#N)c(=S)n2C2OC(CO)C(O)C(O)C2O)cc1 (stereo unspecified)
TGI: > 100 µM

compound: ON(CCc1ccccn1)Cc1ccccc1
TGI: > 100 µM

compound: O=C(NCC#CCO)C(F)(F)F
TGI: > 100 µM

compound: Nc1ccc(C(=O)NN2C(=O)C(Cl)C2c2ccccc2O)cc1 (stereo unspecified)
TGI: > 100 µM

###

# Tested on: HCT-15 colon
# measurement_description: NCI tumour cell line growth inhibition, 48 h; in the data active = GI50 below about 0.43 µM; inactive = the rest
Labels: yes (active), no (inactive)

molecule: CC/C(=C(\CC)c1ccc(OCCN(CC)CC)cc1)c1ccc(OCCN(CC)CC)cc1
answer_label: no

molecule: CC(=O)OCC1OC(S[As](C)C)C(OC(C)=O)C1OC(C)=O (configuration not stated)
answer_label: yes

molecule: CN(C)CC1CCn2c(c(C3=C(c4cn(C)c5ccccc45)C(=O)NC3=O)c3ccccc32)C1 (configuration not stated)
answer_label: no

molecule: C=C[C@]1(C)C=C2C(=O)[C@@]3(O)OC(=O)[C@@]4(CCCC(C)(C)[C@H]34)[C@@]2(O)CC1
answer_label: no

molecule: O=C1/C(=C/c2ccc(Cl)cc2)CN(C(=O)C(Cl)Cl)C/C1=C\c1ccc(Cl)cc1
answer_label: yes

molecule: COc1ccc(F)cc1C(=O)c1cnc(NC2CCN(S(C)(=O)=O)CC2)nc1N
answer_label: no

molecule: CO[C@H](C(=O)N[C@@H](CCCCNC(=O)OCc1ccccc1)C(=O)OC(C)(C)C)[C@@H]1Cc2cc3cc(OC4CC(OC5CC(O)C(O)C(C)O5)C(O)C(C)O4)c(C)c(O)c3c(O)c2C(=O)[C@H]1OC1CC(OC2CC(OC3CC(C)(O)C(O)C(C)O3)C(O)C(C)O2)C(O)C(C)O1 (some centres not stated)
answer_label: no

###

# Tested on: CAKI-1 renal
# measurement_description: NCI tumour cell line growth inhibition, 48 h
measured_endpoint: GI50

compound: Cc1cc(C)nc(SC2=C(Nc3cccc(Cl)c3)C(=O)N(Cc3ccccc3)C2=O)n1
data_value: > 170000 nM

compound: Cc1ccc(S(=O)(=O)n2cc(C(=O)C(=O)Nc3ccncc3)c3ccccc32)cc1
data_value: 1820 nM

compound: COc1ccc(-c2nc(-c3nc4cc(C)c(C)cc4[nH]3)cc3c2[nH]c2ccccc23)cc1
data_value: 2440 nM

compound: COc1cccc2c1c1nc3cc(C)c(C)cc3nc1n2CCN(C)C
data_value: 946 nM

compound: [N-]=[N+]=CC(=O)OCC(N)C(=O)O (stereo not drawn)
data_value: 429 nM

compound: Clc1ccc(CO/N=C(\Cn2ccnc2)c2ccc(Cl)cc2Cl)c(Cl)c1
data_value: 1380 nM

compound: Cc1cccc(N=C2c3cc([N+](=O)[O-])ccc3-c3c2cc([N+](=O)[O-])cc3[N+](=O)[O-])c1
data_value: 15500 nM

compound: CN(C)CC1CCn2c(c(C3=C(c4cn(C)c5ccccc45)C(=O)NC3=O)c3ccccc32)C1 (stereo not drawn)
data_value: 3440 nM

###

# System: LXFL 529 NSCLC
# measurement_description: NCI tumour cell line growth inhibition, 48 h

compound: CCOC(=O)C1C(c2ccc([N+](=O)[O-])cc2)NC(c2ccc([N+](=O)[O-])cc2)C(C(=O)OC)S1(=O)=O (stereo not given)
inequality_operator: >
TGI, µM: 100
--
compound: O=C(O)C(Br)Cc1ccc2c(c1)OCO2 (stereo not given)
inequality_operator: >
TGI, µM: 100
--
compound: Clc1ccc2nc(CCSCCc3nc4ccc(Cl)cc4[nH]3)[nH]c2c1
inequality_operator: =
TGI, µM: 19
--
compound: O=C1c2ccccc2C(=O)c2c(O)c(O)cc(O)c21
inequality_operator: >
TGI, µM: 100
--
compound: CN=S(=O)(C[C@]1(O)CC2OC1C1OC(C)(C)OC21)c1ccccc1 (stereo not given in full)
inequality_operator: >
TGI, µM: 100
--
compound: COc1ccc(/C(Cl)=C(\C=O)c2ccc(Cl)c(Cl)c2)cc1OC
inequality_operator: =
TGI, µM: 13.7
--
compound: COC(=O)/C(=C/CC(N=C(c1ccccc1)c1ccccc1)C(=O)OC)N=C(c1ccccc1)c1ccccc1 (stereo not given)
inequality_operator: >
TGI, µM: 100
--
compound: CCC[CH2][Sn]([CH2]CCC)([S]C1=NCCS1)[S]C1=NCCS1
inequality_operator: =
TGI, µM: 0.169
--
compound: O=S1c2ccc(Cl)cc2CC(SSC2Cc3cc(Cl)ccc3S(=O)c3ccccc32)c2ccccc21 (stereo not given)
inequality_operator: >
TGI, µM: 100
--
compound: COc1cc([C@H]2Oc3cc(O)c4c(=O)cc(-c5ccc(O)cc5)oc4c3O[C@@H]2CO)ccc1O
inequality_operator: =
TGI, µM: 29.2
